System: SNB-78
Assay: NCI tumour cell line growth inhibition, 48 h
Calls of active or inactive are those of the source. No stated cut-off is given here; in the data, active = GI50 up to about 1.1 µM and inactive = higher.
Catalogue of GI50 readings, one per entry.
endpoint.name: GI50

compound | result
CCCS(=O)(=O)/C(=C(\c1ccc(Br)cc1)S(=O)(=O)CCC)c1ccc(Br)cc1 | > 10 µM (inactive)
Cc1cc2c(cc1C)[n+]([O-])c(C(=O)/C=C/c1ccccc1Cl)c(C)[n+]2[O-] | 33.7 µM (inactive)
CC(Cl)(/C=C/Cl)C(Cl)/C=C/C(Cl)(CCl)CBr (stereo unspecified) | 1.75 µM (inactive)
COc1ccc2c3c(c(C(=O)O)oc13)CCC2 | > 100 µM (inactive)
Cc1c2cc[n+](C)cc2c(C)c2c1sc1ccccc12 | 0.855 µM (active)
CC(=O)CC[N+](C)(C)C | 12.5 µM (inactive)
